- system.name: Focal adhesion kinase 1 (Homo sapiens)
- experiment: PTK2 protein binding on printed compound slides – biochemical, small-molecule microarray, 635/667 nm fluorescence, BSA, DTT, primary screen (AID 1130);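 further: composite of spot emission at 667 nm and signal to noise over triplicate slides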
- assay.context: 635 nm fluorescence, higher = more signal
The following compounds are listed with their measured composite z-score values.
Answer using only a numeral; do not append any unit.

Would you please look over these solved cases?
Cc1ccc(S[C@]2(C(=O)NCCN3CCOCC3)CC(=O)N(C3Cc4ccccc4C3)[C@@H]2c2ccc(CO)cc2)cc1
0.82
COC(=O)c1ccc(OC)c(/C=C\CC(CCc2ccccc2)OC(=O)c2ccncc2)c1 (centres undefined)
-0.21
Cc1ccccc1C(O)C1C=CC2C(=O)N(Cc3ccccc3)C(=O)C2N1n1cnnc1 (centres undefined)
-0.0602

What measured composite z-score goes with `C=CC[C@]1(C(=O)N2CCOCC2)N=C(c2ccc(OCCCO)cc2)O[C@H]1c1ccccc1CN=[N+]=[N-]` ?
0.88
